# credit: paper PMC4771712

system: T1, GST fusion of the FAT (focal adhesion targeting) domain of focal adhesion kinase, human FAK 892-1052 (human, UniProt Q05397 892-1052)
T1 construct: focal adhesion kinase (FAK), human, FAT domain, residues 892-1052; Cloned into pGEX4T1; For the pull-down provided by Dr. M. K. Hoellerer; for bio-layer interferometry the same construct was synthesised (GeneArt) and made by the same procedure; also called GST-FAT; GST labeled FAT; source: E. coli BL21 (DE3), purified using GST-4B beads
T1 sequence (looked up): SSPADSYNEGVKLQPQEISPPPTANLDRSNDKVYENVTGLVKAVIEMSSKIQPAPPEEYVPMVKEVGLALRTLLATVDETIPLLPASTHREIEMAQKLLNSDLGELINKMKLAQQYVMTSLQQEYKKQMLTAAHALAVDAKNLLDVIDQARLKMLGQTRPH
assay_summary: BLI; GST-FAT immobilised on Anti-GST biosensors (20 μg/ml in PBS), paxillin constructs as analytes in PBS with Tween 20 (0.05%) and BSA (1%), Octet RED96, global fitting (B2 1:1 model, C35_1 to C35_3 2:1 model)
measurement_conditions: both partners purified
Each item that follows carries a reported kon.
All answers are understood in M⁻¹ s⁻¹, so give the number only.

Recorded kon, per entry:
{"columns": ["binder", "uom", "kon"],
 "data": [
  ["paxillin Construct C35_1 (54-189) (domain or fragment, human, UniProt P49023-2 54-189, looked up, human paxillin residues 54-189; Cloned into pET28a; source: E. coli BL21DE3, purified) SSEALNGTILDPLDQWQPSSSRFIHQQPQSSSPVYGSSAKTSSVSNPQDSVGSPCSRVGEEEHVYSFPNKQKSAEPSPTVMSTSLGSNLSELDRLLLELNAVQHNPPGFPADEANSSPPLPGALSPLYGVPETNSP", "M⁻¹ s⁻¹", 22500],
  ["paxillin Construct C35_2 (79-189) (domain or fragment, human, UniProt P49023-2 79-189, looked up, human paxillin residues 79-189; Cloned into pET28a; source: E. coli BL21DE3, purified) QQPQSSSPVYGSSAKTSSVSNPQDSVGSPCSRVGEEEHVYSFPNKQKSAEPSPTVMSTSLGSNLSELDRLLLELNAVQHNPPGFPADEANSSPPLPGALSPLYGVPETNSP", "M⁻¹ s⁻¹", 9710],
  ["paxillin Construct C35_3 (105-189) (domain or fragment, human, UniProt P49023-2 105-189, looked up, human paxillin residues 105-189; Cloned into pET28a; source: E. coli BL21DE3, purified) GSPCSRVGEEEHVYSFPNKQKSAEPSPTVMSTSLGSNLSELDRLLLELNAVQHNPPGFPADEANSSPPLPGALSPLYGVPETNSP", "M⁻¹ s⁻¹", 72900]
]}

Consider the record given below.
Could you tell me which kon is on file for paxillin construct B2, expressed in E. coli for bio-layer interferometry (domain or fragment) SSEALNGTILDPLDQWQPSSSRFIHQQPQSSSPVYGSSAKTSSVSNPQDSVGSPCSRVGEEEHVYSFPNKQKSAEPSPTVMSTSLGSNLSELDRLLLELNAVQHNPPGFPADEANSSPPLPGALSPLYGVPETNSPLGGKAGPLTKEKPKRNGGRGLEDVRPSVESLLDELESSVPSPVPAITVNQGEMSSPQRVTSTQQQTRISASSATRELDELMASLSDFKFM ? 47500
